Molecular target: wtGGBP (Escherichia coli)
Construct: polyhistidine (C); made in house; host or cells: E. coli BL21(DE3)
Sequence (P0AEE5 24-332 limits assumed): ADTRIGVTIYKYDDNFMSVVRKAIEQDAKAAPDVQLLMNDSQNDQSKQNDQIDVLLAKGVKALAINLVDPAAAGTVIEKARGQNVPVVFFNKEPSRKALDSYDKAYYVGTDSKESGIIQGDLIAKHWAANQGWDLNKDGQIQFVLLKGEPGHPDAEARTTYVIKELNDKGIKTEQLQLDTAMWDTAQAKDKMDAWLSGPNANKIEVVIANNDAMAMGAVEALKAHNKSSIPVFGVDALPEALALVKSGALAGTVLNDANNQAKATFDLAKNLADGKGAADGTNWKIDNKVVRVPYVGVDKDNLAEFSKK
Assay: Isothermal titration calorimetry of glucose binding (wild type)
Design: species or system E. coli
Conditions: 0.1 M GdnHCl (red), read-out: Kd (ITC)
METRIC_NAME: pKd
pKd here is simply -log10 of the concentration when that concentration is written in mol/L.

Kindly note the recorded pKd for OC[C@H]1OC(O)[C@H](O)[C@@H](O)[C@@H]1O (stereo partly shown) , which is 6.55

----------
Target: GGBP/H152C (Escherichia coli, UniProt P0AEE5, H175C)
Construct: polyhistidine (C); made in house; host or cells: E. coli BL21(DE3)
Sequence (P0AEE5 24-332 H175C limits assumed): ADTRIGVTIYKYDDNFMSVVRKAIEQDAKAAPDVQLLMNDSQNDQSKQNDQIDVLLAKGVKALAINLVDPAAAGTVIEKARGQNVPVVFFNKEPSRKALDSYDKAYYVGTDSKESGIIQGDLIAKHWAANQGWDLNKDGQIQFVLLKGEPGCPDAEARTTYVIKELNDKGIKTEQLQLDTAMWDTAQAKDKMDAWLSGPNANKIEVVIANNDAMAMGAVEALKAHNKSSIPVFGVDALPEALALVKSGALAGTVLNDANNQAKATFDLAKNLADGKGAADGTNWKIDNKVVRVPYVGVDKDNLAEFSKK
Assay: Isothermal titration calorimetry of glucose binding (mutant)
Design: species or system E. coli
Settings: Kd (ITC), solution without denaturants (black)
METRIC_NAME: Kd (µM)
State the answer as a number, implicitly in µM.

According to the records, this compound OC[C@H]1OC(O)[C@H](O)[C@@H](O)[C@@H]1O (stereo partly shown) displays Kd of 3.05

Values were extracted from paper PMC5618657.
